Sourced from ChEMBL document CHEMBL4382245

Tested on: Epidermal growth factor receptor (Homo sapiens), P00533 [L858R,T790M]
Sequence (P00533 whole entry T790M/L858R, looked up): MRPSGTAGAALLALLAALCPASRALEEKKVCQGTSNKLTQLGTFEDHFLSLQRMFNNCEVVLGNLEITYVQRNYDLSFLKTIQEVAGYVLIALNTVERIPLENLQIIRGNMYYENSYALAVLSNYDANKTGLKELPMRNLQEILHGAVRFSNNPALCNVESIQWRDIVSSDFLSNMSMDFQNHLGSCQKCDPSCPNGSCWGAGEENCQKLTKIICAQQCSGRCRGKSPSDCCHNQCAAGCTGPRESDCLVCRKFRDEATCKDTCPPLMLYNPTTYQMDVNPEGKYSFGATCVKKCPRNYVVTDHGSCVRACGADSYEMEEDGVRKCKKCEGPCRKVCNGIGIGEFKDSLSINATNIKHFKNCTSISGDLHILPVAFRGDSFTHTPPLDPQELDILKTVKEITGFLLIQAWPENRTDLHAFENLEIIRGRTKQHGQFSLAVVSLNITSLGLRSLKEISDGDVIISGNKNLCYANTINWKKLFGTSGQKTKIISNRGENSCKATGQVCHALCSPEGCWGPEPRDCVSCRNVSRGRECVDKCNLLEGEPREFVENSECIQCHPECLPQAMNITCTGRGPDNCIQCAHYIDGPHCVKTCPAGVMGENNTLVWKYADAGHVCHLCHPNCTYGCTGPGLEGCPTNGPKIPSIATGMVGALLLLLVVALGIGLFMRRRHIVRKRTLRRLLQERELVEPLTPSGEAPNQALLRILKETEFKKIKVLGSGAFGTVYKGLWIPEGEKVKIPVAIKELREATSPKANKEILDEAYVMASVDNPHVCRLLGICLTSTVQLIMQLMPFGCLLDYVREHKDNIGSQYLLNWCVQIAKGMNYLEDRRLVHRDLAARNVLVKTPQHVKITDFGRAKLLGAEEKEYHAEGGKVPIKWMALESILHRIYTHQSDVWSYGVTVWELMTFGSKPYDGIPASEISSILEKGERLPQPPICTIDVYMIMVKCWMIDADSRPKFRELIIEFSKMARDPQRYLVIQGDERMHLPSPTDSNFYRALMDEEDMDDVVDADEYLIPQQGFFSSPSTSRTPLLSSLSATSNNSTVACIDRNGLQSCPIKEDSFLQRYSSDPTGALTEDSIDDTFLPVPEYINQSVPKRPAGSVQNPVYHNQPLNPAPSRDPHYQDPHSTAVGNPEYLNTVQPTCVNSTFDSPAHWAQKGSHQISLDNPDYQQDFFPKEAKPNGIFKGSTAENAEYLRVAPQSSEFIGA
Condition Set: NCI-H1975, at 1 µM
Description: Inhibition of EGFR T790M/L858R double mutant auto-phosphorylation in human NCI-H1975 cells at 1 uM by Western blot analysis relative to control
Measure Name: inhibition

[[record]]
line_notation = "CCOc1cc2ncnc(Nc3ccc(F)c(Cl)c3)c2cc1NC(=O)CO"
result = "0%"

[[record]]
line_notation = "CCOc1cc2ncnc(Nc3ccc(F)c(Cl)c3)c2cc1NC(=O)COC(C)=O"
result = "68%"

[[record]]
line_notation = "CCOc1cc2ncnc(Nc3ccc(F)c(Cl)c3)c2cc1NC(=O)COC(=O)c1ccccc1"
result = "43%"

[[record]]
line_notation = "CCOc1cc2ncnc(Nc3ccc(F)c(Cl)c3)c2cc1NC(=O)COC(=O)c1c(C)cccc1C"
result = "16%"

